- Test: protein stability index of a GFP-peptide fusion (yeast GPS) (PSI 1-4); higher = more stable; sorted into four equal gates, so the index is relative within each strain
- Stated conditions: ubr1∆
Measurement kind: protein stability index
Numbers only.

Examples with answers:
[
  {
    "Sequence record": "NENKVIIELPNEKFEIE [SRB4]",
    "Measurement kind": "protein stability index",
    "Readout value": 2.8
  },
  {
    "Sequence record": "TRAAKIAPRPLDLLRPV [RPL13A]",
    "Measurement kind": "protein stability index",
    "Readout value": 2.89
  }
]

Give protein stability index for each of the items listed below.
1. VIIRRLKTRDWIVVLPW [POP1]
2. LDDLQVILAKNENETRD [PGD1]
3. SPMGAQPSYNSAIIENA [GAL11]

[out]
[1.82, 3.38, 2.73]

Required: protein stability index, one value per sequence below.
1. EIGLLGGRYVYPVHEAH [SNU114]
2. RPNRRGPRNTEEKGWVP [RPS2]
3. PKMQWSLQDNSAAINNE [RPN4]
4. NTKEEFAAAPNDTSSGT [SNF5]
5. CFPQYVNSKQGAINVAN [NNF1]
6. MDYHFIFSYLQFTSSLF [RGR1]

[out]
1: 2.03; 2: 3.66; 3: 3.15; 4: 2.9; 5: 3.02; 6: 1.21
